Origin of the recorded values: paper PMC2192576

- System: T1, influenza virus (A/PR/8/34) HA (hemagglutinin) peptide on HLA-DRA*01:01 / HLA-DRB1*04:01 (human)
- T1 peptide: PKYVKQNTLKLAT
- Measurement protocol: cytokine release
Assay metric: binding result

JS515.11 TCR (TCR, V domains shown) Valpha: QSVTQLGSHVSVSEGALVLLRCNYSSSVPPYLFWYVQYPNQGLQLLLKYTTGATLVKGINGFEAEFKKSETSFHLTKPSAHMSDAAEYFCAVSEGGGSEKLVFGKGTKLTVNP Vbeta: DVKVTQSSRYLVKRTGEKVFLECVQDMDHENMFWYRQDPGLGLRLIYFSYDVEMKEKGDIPEGYSVSREKKERFSLILESASTNQTSMYLCASSPGTSGTTYEQYFGPGTRLTVT
recognises
hybrid TCR: JS515.11 TCRA with 3BC6.6 TCRB (TCR, V domains shown) Valpha: QSVTQLGSHVSVSEGALVLLRCNYSSSVPPYLFWYVQYPNQGLQLLLKYTTGATLVKGINGFEAEFKKSETSFHLTKPSAHMSDAAEYFCAVSEGGGSEKLVFGKGTKLTVNP Vbeta: DVKVTQSSRYLVKRTGEKVFLECVQDMDHENMFWYRQDPGLGLRLIYFSYDVEMKEKGDIPEGYSVSREKKERFSLILESASTNQTSMYLCASSLTTSGYTFGSGTRLTVV
no recognition
hybrid TCR: 3BC6.6 TCRA with JS515.11 TCRB (TCR, V domains shown) Valpha: QSVTQLGSHVSVSEGALVLLRCNYSSSVPPYLFWYVQYPNQGLQLLLKYTSAATLVKGINGFEAEFKKSETSFHLTKPSAHMSDAAEYFCAVSEDTSYDKVIFGPGTSLSVIP Vbeta: DVKVTQSSRYLVKRTGEKVFLECVQDMDHENMFWYRQDPGLGLRLIYFSYDVEMKEKGDIPEGYSVSREKKERFSLILESASTNQTSMYLCASSPGTSGTTYEQYFGPGTRLTVT
no recognition
3BC6.6 TCR (TCR, V domains shown) Valpha: QSVTQLGSHVSVSEGALVLLRCNYSSSVPPYLFWYVQYPNQGLQLLLKYTSAATLVKGINGFEAEFKKSETSFHLTKPSAHMSDAAEYFCAVSEDTSYDKVIFGPGTSLSVIP Vbeta: DVKVTQSSRYLVKRTGEKVFLECVQDMDHENMFWYRQDPGLGLRLIYFSYDVEMKEKGDIPEGYSVSREKKERFSLILESASTNQTSMYLCASSLTTSGYTFGSGTRLTVV
recognises
